Taken from patent US10654917B2.

Parameter: tissue uptake at 2 min. Scope: all listed entries.
Experiment: Biodistribution of technetium-labelled peptides
Assay type: in vivo, CD1 mice
Conditions: CD1, liver, iv, 140 ug/mouse, total radioactivity; 140 μg/mouse; 2 min; read-out: injected activity in Liver
Residues, ends and D or L forms follow the SMILES beside them. *: point of attachment. X1 = Cc1nn(CCN(CCN)CCCC(=O)*)c(C)c1CC(=O)O
Write it as a number; the unit %ID/g goes unstated.

compound	tissue uptake at 2 min / %ID/g
Cc1nn(CCN(CCN)CCCC(=O)N[C@H](C(=O)N[C@@H](CCC(N)=O)C(=O)N[C@@H](CCC(N)=O)C(=O)N[C@@H](CC(C)C)C(=O)N[C@H](C(=O)N[C@@H](CCCCN)C(=O)N[C@@H](CCCNC(=N)N)C(=O)N[C@@H](Cc2ccccc2)C(=O)N[C@@H](CO)C(=O)N[C@@H](CC(C)C)C(=O)O)[C@@H](C)O)C(C)C)c(C)c1CC(=O)O [^99mTc(CO)3-Pz^1-pepH1, metal not drawn] (X1-VQQLTKRFSL-OH; C-terminus assumed)	7

Lookup: Requested read-out: tissue uptake at 2 min. Entry: CC[C@H](C)[C@H](NC(=O)CNC(=O)[C@H](C)NC(=O)CCCN(CCN)CCn1nc(C)c(CC(=O)O)c1C)C(=O)N[C@@H](CC(C)C)C(=O)N[C@@H](CCCCN)C(=O)N[C@@H](CCCNC(=N)N)C(=O)N[C@@H](Cc1c[nH]c2ccccc12)C(=O)O [^99mTc(CO)3-Pz^1-pepH3, metal not drawn] (X1-AGILKRW-OH; C-terminus assumed)
Found: 18.8
